Field: Biodistribution: Liver. Provide a value for each of the compounds that follow.
# experiment_description: In vivo biodistribution in mice
# Set-up: species or system normal CD-1 male mice
# conditions_used: iv, 2 min post injection
Numbers only, in % dose/g.

compound	measurement_units	assay_result
O=C([O-])CN(CCN(CC(=O)[O-])Cc1cc(CCC(=O)NC(P(=O)(O)O)P(=O)(O)O)ccc1[O-])Cc1cc(CCC(=O)NCCCCCC(=O)NCCCC[C@H](NC(=O)N[C@@H](CCC(=O)O)C(=O)O)C(=O)O)ccc1[O-].[68Ga+3] [[^68Ga]1g]	% dose/g	1.73
O=C([O-])CN(CCN(CC(=O)[O-])Cc1cc(CCC(=O)NC(P(=O)(O)O)P(=O)(O)O)ccc1[O-])Cc1cc(CCC(=O)NCCCNC(=O)CCc2ccc(O)c(CN(CCN(CC(=O)O)Cc3cc(CCC(=O)NC(P(=O)(O)O)P(=O)(O)O)ccc3O)CC(=O)O)c2)ccc1[O-].[68Ga+3] [[^68Ga]3]	% dose/g	19.7
O=C([O-])CN(CCN(CC(=O)[O-])Cc1cc(CCC(=O)N[C@@H](CC(=O)O)C(=O)O)ccc1[O-])Cc1cc(CCC(=O)NC(P(=O)(O)O)P(=O)(O)O)ccc1[O-].[68Ga+3] [[^68Ga]1e]	% dose/g	1.90

Here is the next item to consider.
Any idea what its Biodistribution: Liver is? The compound is C[C@H](NC(=O)CCc1ccc([O-])c(CN(CCN(CC(=O)[O-])Cc2cc(CCC(=O)NC(P(=O)(O)O)P(=O)(O)O)ccc2[O-])CC(=O)[O-])c1)C(=O)O.[68Ga+3] [[^68Ga]1d]
1.89
